experimental-target: 11-beta-hydroxysteroid dehydrogenase 1 (Homo sapiens, UniProt P28845)
Sequence (P28845 whole entry): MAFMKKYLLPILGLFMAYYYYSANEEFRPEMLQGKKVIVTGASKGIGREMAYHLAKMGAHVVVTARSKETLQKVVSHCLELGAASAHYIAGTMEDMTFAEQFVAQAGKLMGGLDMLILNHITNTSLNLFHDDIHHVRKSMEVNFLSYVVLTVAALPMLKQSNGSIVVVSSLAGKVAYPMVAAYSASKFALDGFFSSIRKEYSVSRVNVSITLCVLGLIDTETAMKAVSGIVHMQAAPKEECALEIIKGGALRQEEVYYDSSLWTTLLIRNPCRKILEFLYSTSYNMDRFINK
measurement-protocol: Inhibition of human 11beta-HSD1 expressed in HEK293 cells
Assay type: cell-based
Lab note - cut at 0.2 µM for IC50: 1 if strictly below, -1 if not.

## Task Hi there! Is IC50 for CC1(C)C(=O)N([C@H]2C3CCCC2C[C@@H](C(N)=O)C3)CC1COc1ccc(C#N)cn1 (stereo in doubt; 31) below 0.2 µM, do you know?
## Result 1

---

measurement-protocol: Half life in mouse at 5 mg/kg, iv and 10 mg/kg, po
Format: ADME, organism-based
run-conditions: in vivo
measurement-name: half-life (h)
The reply should contain only the number, in h.

| compound | obs-value |
| --- | --- |
| CC1(C)C(=O)N([C@H]2C3CCCC2C[C@@H](C(N)=O)C3)CC1COc1ccc(C#N)cn1 (stereo in doubt; 31) | 1.3 |

Attention now shifts to the item below.
Reported half-life of CC1(C)C(=O)N([C@H]2C3CC4CC2C[C@](C(N)=O)(C4)C3)CC1COc1ccc(C#N)cn1 (some centres not stated) : 1.3
